B1: library; a variant is named by its letters at N, in order (parent)
chain: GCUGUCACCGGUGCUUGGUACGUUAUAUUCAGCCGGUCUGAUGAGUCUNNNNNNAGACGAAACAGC

Variants of: B1
Test: FACS-Seq fitted mean relative fluorescence mCherry/BFP without ligand (log10 relative fluorescence); HEK293T overexpressing SLC46A1; higher = higher reporter protein expression
Conditions: without (6R,S)-folinic acid; ligand present: no
The following variants are shown together with reported FACS-Seq fitted mean (log10) values.
Parameter measured: FACS-Seq fitted mean (log10)

GUUUAG 0.516
AUUUUC 0.447
UACGAG 0.31
GUUCAC 0.0291
UUCUGG 0.429
UGUCGU 0.152
UAAAAG 0.335
CCAUGU 0.369
GAUGUG 0.409
UUCUAG 0.502
AGUACG 0.0935
UGUUAC 0.317
GUAUCA 0.376
AUAGAG 0.0276
UGAUUA -0.918
AUAAAU 0.45
GUGGCC 0.354
ACGAAG 0.365
AAGAGG 0.589
AUCGAG 0.076
UAUGCG 0.276
AUGCGU 0.523
AGAUGA 0.308
UUACUG -0.466
GAUUGA 0.422
AGGGAC -0.124
UAUAGA 0.233
CGGGAU 0.211
UGCGAG 0.31
UAAAAA 0.254
CGCUUU -0.0215
GAUUCA 0.437
UCAGUC 0.427
UACGGU 0.419
GGGUAU 0.149
AGAGCU 0.596
UCUGUU 0.459
GUACUU 0.484
GACGUG 0.598
UAGACA 0.386
UUCCAA 0.112
CGCAAC 0.453
CAUAAA 0.548
UUAUAC 0.677
ACAGGG 0.0799
CUGGAA 0.184
CGAGGG 0.504
CUCGCA 0.235
UUCGGC 0.0747
AUCUCG 0.399
AUGACG 0.318
GGGAGC 0.342
GACUAU 0.375
AUGGGG 0.139
UGACAG 0.327
CGGAUG 0.00208
CACACU 0.136
UGGUAG 0.0552
ACGCUU -0.382
UCGGAG 0.429
CUAUGU 0.286
GUGAAG 0.207
AAACUG 0.318
UUUUUG 0.145
UUAGAG 0.029
GAAGAU 0.124
GAGUCA -0.101
ACUGAG 0.198
GUUAUG 0.244
AAACAU 0.298
ACAGGU 0.385
